Record form. Attribute: reverse-splicing fitness. Fill in for each entry.
B1: Azoarcus group I ribozyme (parent)
chain: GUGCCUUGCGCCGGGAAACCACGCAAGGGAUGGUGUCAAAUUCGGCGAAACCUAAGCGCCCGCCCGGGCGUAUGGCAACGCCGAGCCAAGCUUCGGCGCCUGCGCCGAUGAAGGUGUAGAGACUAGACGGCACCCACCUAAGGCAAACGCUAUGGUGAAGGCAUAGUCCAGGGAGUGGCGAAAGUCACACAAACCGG

# Variants of: B1
# PROCEDURE_SUMMARY: reverse-splicing fitness (ratio to wild type); higher = more active; in vitro selection; Mg2+ level not given

For orientation, consider the following solved cases.
MUTATION_LIST: C82U A145U C150A C169A
RESULT: 0.00771

MUTATION_LIST: A111C A120C A145C C150A C169A U176A
RESULT: 0.0152

MUTATION_LIST: C82G A111G A120C A145U C150U C169U U176C
RESULT: 0.0143

MUTATION_LIST: A111C A120C C150U
RESULT: 0.362

MUTATION_LIST: C82A A111U A120U A145C C150G C169U
RESULT: 0.00392

List the reported reverse-splicing fitness of each variant below.
1. C82G A111C A120U A145G C169A U176C
2. C82G A111G A120C A145U C150U C169G U176A
3. C82G A111G A120U A145C C169G U176A
4. A111U A145C C150U C169G
5. C82A A120U A145G C169G U176A
6. C82A A111C A145C C150U C169U U176C
7. C82A A111C A120U A145G C150A C169A
8. C82U A120C A145U C169U

Marked response:
1. 0.00311
2. 0.0171
3. 0.00244
4. 0.0177
5. 0.00295
6. 0.0108
7. 0.00708
8. 0.0193

List the reported reverse-splicing fitness of each variant below.
1. C82U A111U A120C A145C C169U U176G
2. C82A A120U A145U C169U U176G
3. C82G U176A

Marked response:
1. 0.00412
2. 0.00154
3. 0.364

List the reported reverse-splicing fitness of each variant below.
1. C82A A111U A120G A145G C169A U176A
2. A120C A145C C150G U176C

Marked response:
[0.0222, 0.174]

List the reported reverse-splicing fitness of each variant below.
1. C82A A111U A120U A145C C150G C169G U176G
2. A111U A120G A145G C150U C169A
3. A111C A120U A145U C150A U176C
4. A111U A145G C150G C169A U176G

Marked response:
1. 0.00242
2. 0.0845
3. 0.0354
4. 0.00707
